Where these numbers come from: PubChem BioAssay (NCI)

System: HT29 colon
Experimental details: NCI-60 one-dose screen, 48 h
Stated conditions: 10 µM unless noted
This is part of a sample that, as a whole, favours compounds with a hit. Of some 83,000 tested, about 20% had one in any assay. The source made the active and inactive calls. Rule for the calls: active = growth percent below 10; inactive = the rest.
Reply using exactly one outcome from 1 (active), -1 (inactive)

# Smiles input, Group
records = [
    ("C=CC(=O)Nc1cccc(Oc2nc(Nc3ccc(N4CCN(C)CC4)cc3)nc3ccsc23)c1", 1),
]

Which outcome was assigned to O=C(Cc1ccc(/C=C/C(=O)c2ncc[nH]2)cc1)Nc1ccc(Br)cc1 in this test?
1

Tell me the assay call for CCCNC(=O)c1cn2ncnc(Nc3cc(C(=O)NC4CC4)ccc3C)c2c1C please.
-1

Which outcome was entered for the compound CCOC(=O)C1=C(C)N=C2Sc3cccc(OC)c3N2[C@H]1c1ccccn1 in this test?
-1

====

System: HOP-92 NSCLC
Experimental details: NCI-60 one-dose screen, 48 h
Stated conditions: 10 µM unless noted
Compounds without any hit were thinned out: in the full panel of roughly 83,000, 20% have a hit. Activity calls are given as the source filed them. How the source made its calls: active means growth percent below 10; inactive means the rest.
The reply should name one outcome from yes for active, no for inactive

These recorded examples may help you get a feel for the data.
# Molecule, Group
records = [
    ("CCN1CCN(Cc2ccc(-c3cc4c(N[C@H](C)c5ccccc5)ncnc4[nH]3)cc2)CC1", "no"),
    ("CCc1cc2c(cc1N1CCC(N3CCOCC3)CC1)C(C)(C)c1[nH]c3cc(C#N)ccc3c1C2=O", "yes"),
    ("COc1cc2c(Oc3ccc4[nH]c(C)cc4c3F)ncnc2cc1OCCCN1CCCC1", "no"),
    ("CCC1(/C=N/NC(N)=S)NC(=O)NC1=O (centres undefined)", "no"),
    ("CN1C/C=C\\CCOc2cccc(c2)-c2ccnc(n2)Nc2cccc(c2)C1", "yes"),
    ("COC(=O)[C@]12CC[C@@H](C)[C@H](C)[C@@H]1C1=CC[C@@H]3[C@@]4(C)C(C=O)=C[C@@](C)(COS(C)(=O)=O)C4=CC[C@@]3(C)[C@]1(C)CC2", "yes"),
    ("Cn1cc(-c2cnn3c(N)c(Br)c([C@@H]4CCCNC4)nc23)cn1", "no"),
    ("CCCCn1c(C)nc2ccc(Nc3nc(N4CCN(C)CC4)nc4nc[nH]c34)cc21", "no"),
    ("CC(C)(C)OC(=O)N1CCC(O)[C@@H](O[Si](c2ccccc2)(c2ccccc2)C(C)(C)C)[C@H]1/C=C/c1ccccc1 (some centres undefined)", "no"),
    ("ClCc1ccc(-c2ccc(Cn3cnc4c(Cl)nc(Cl)nc43)cc2)cc1", "yes"),
]

Test call, this molecule: C/C(=C(/c1ccc(Cl)cc1)c1ccc(OCCN2CCCC2)cc1)c1ccccc1
no

# fetch the recorded call for COc1cnc2c(c1)C(=O)c1c-2n(CCCn2ccnc2)c(=O)c2cc(Cl)ccc12 here
no

Status in this test for O=C1CCC(=O)CC1 ?
no

Name the outcome recorded for CSc1nc2ncnc(SC)c2[nH]1 in the assay.
no

What outcome does the record of this test show for COc1cc(-c2nc(C(=O)Nc3ccc(C)cc3)nn2-c2ccc(F)c(F)c2)cc(OC)c1OC ?
no

What call does the record list for CN1CCN(CC(=O)Nc2ccc(-c3nc4ccccc4s3)cc2)CC1 ?
no

Entry Cc1cc(C)n(CC(=O)Nc2ccc(-c3nc4ccccc4s3)cc2)n1 : call = ?
no

Check the results log: what was the call for COc1c(C(NC(=O)c2ccccc2)c2sccc2C)cc(Cl)c2cccnc12 (centres undefined) ?
no

Which outcome did this test record for the molecule CC[C@@H]1C(=O)N(C)c2cnc(Nc3ccc(C(=O)NC4CCN(C)CC4)cc3OC)nc2N1C1CCCC1 ?
yes

What is the recorded call for this molecule in the test? Cc1ccc(NC(=O)Nc2ccc(Nc3ncnc4sc5c(c34)CCOC5)cc2)cc1Cl
no

Dear colleague, could you share the recorded outcome for Cc1sc2c(c1C)c(=O)nc1c(-c3nc(-c4ccccc4)cs3)n[nH]n12 when you have a moment?
no

Just curious, what result did O=C1CSC(c2c(F)cccc2Cl)N1NC(=O)C(O)(c1ccccc1)c1ccccc1 (centres undefined) get here?
no

What call does the record list for CC1(O)CCC(Nc2cc(-c3ccc(C(F)(F)F)cc3)c(C#N)c3nc4ccccc4n23)CC1 (centres undefined) ?
no

Query: recorded result category for NC(=O)Nc1cc(-c2cccc(F)c2)sc1C(=O)N[C@H]1CCCNC1 in this test
yes
